- subjectOfTest: SARS-CoV-2 3CLpro (Severe acute respiratory syndrome coronavirus 2, UniProt P0DTD1)
- experimentDescription: biochemical
- Assay type: biochemical
- Set-up: unit not given here
- particulars: sheet LOPAC_screen_w_protease; primary screen with protease, compound at 5 µM; replicate 1
attributeMeasured: Replicate_1

Recorded Replicate_1 (compound "[N-]=[N+]=Nc1ccc(C(=O)CSC[C@H](NC(=O)CC[C@H](N)C(=O)O)C(=O)NCC(=O)O)cc1" ): 2.672

Value of Replicate_1 reported for the compound "Cl.NC1(C(=O)O)CCCCC1" is 1.961

Input Cl.NCC(O)c1cc(O)c(O)cc1F (stereo not shown) [6-Fluoronorepinephrine hydrochloride] . Output Replicate_1: 2.331

// Replicate_1 lookup, compound = "N#CC(=Cc1ccc(O)c(O)c1)C(=O)NCCc1ccccc1" , result: 3.137
